The reported numbers originate from patent US11345713B2.

molecular target: human TLR2 (Pam3CSK4, TLR1/2 agonist) in HEK-Blue hTLR2 cells (Homo sapiens, UniProt O60603); construct: host or cells: HEK-Blue hTLR2 (HEK-293); test: HEK-Blue hTLR2 antagonism assay (SEAP reporter) with Pam3CSK4 as agonist; type: cell-based; settings: 2 h compound pre-incubation, approx. 3×EC50 Pam3CSK4, 18 h, SEAP OD 655 nm, background subtracted
Sequence (O60603 19-784 limits assumed): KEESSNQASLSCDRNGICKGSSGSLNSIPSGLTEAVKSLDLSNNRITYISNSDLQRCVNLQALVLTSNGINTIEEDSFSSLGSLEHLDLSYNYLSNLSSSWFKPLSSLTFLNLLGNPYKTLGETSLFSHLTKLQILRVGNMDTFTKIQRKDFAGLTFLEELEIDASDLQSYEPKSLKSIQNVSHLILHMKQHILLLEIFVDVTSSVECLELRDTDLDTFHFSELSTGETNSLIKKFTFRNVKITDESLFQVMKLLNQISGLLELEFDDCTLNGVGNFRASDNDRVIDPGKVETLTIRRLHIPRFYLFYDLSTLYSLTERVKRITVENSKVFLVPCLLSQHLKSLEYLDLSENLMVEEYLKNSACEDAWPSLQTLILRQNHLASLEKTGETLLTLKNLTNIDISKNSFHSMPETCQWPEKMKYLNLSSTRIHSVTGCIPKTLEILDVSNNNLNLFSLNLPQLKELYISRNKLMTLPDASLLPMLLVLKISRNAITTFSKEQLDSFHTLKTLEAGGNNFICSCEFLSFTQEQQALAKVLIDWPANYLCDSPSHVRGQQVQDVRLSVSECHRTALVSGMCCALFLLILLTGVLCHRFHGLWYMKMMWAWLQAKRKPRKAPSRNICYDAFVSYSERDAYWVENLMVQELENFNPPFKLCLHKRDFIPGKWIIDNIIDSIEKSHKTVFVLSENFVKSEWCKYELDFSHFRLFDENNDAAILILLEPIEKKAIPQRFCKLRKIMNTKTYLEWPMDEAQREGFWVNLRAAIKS
Field: IC50. Provide a value for each of the compounds that follow.
Answers are plain numbers, in µM.

Reference set (3 entries):
- molecular_string: "COc1cc(-c2cc3c(s2)CCN(C(=O)OC(C)(C)C)C3)cc(C=O)c1O"
  observed_result: 1.3
- molecular_string: "Oc1c(F)cc(/C=C/c2ccc(N3CCCC3)cc2)cc1C1OCCCO1"
  observed_result: 1.3
- molecular_string: "C[N+]1([O-])CCN(/N=C/c2cc(/C=C/c3ccc(N4CCCC4)cc3)cc(F)c2O)CC1"
  observed_result: 1.9

Q: Write down IC50 measured for item COc1cc(/C=C/c2ccc3c(c2)CCCO3)cc(C=O)c1O
Ans: 1.2

* * *

molecular target: human TLR2 (Pam2CSK4, TLR2/6 agonist) in HEK-Blue hTLR2 cells (Homo sapiens); construct: host or cells: HEK-Blue hTLR2 (HEK-293); experiment: HEK-Blue hTLR2 antagonism assay (SEAP reporter) with Pam2CSK4 as agonist; format: cell-based; settings: 2 h compound pre-incubation, approx. 3×EC50 Pam2CSK4, 18 h, SEAP OD 655 nm, background subtracted
Field: log10 of IC50. Provide a value for each of the compounds that follow.
Give log10 of IC50, with IC50 taken in µM.

- molecular_string: "CCN(CC)c1ccc(/C=C/c2cc(C=O)c(O)c(OC)c2)cc1"
  target_or_system: "human TLR2 (Pam2CSK4, TLR2/6 agonist) in HEK-Blue hTLR2 cells (Homo sapiens)"
  quantity_measured: "log10 of IC50"
  observed_result: 0.18

State recorded log10 of IC50 for all listed compounds.
1. O=Cc1cc(/C=C\c2ccc(N3CCOCC3)cc2)cc(F)c1O
2. COc1cc(/C=C/c2ccccn2)cc(C=O)c1O
3. O=Cc1cc(/C=C/c2cccc(C(F)(F)F)c2)cc(F)c1O

Ans:
1.52
1.07
0.04

Q: Write down log10 of IC50 measured for item Oc1c(F)cc(/C=C/c2ccc(N3CCCC3)cc2)cc1/C=N/N1CCN(C2CC2)CC1
Ans: 1.42

* * *

target: human TLR2 (Pam2CSK4, TLR2/6 agonist) in HEK-Blue hTLR2 cells (Homo sapiens, UniProt O60603); construct: host or cells: HEK-Blue hTLR2 (HEK-293); experiment: HEK-Blue hTLR2 antagonism assay (SEAP reporter) with Pam2CSK4 as agonist; format: cell-based; details: 2 h compound pre-incubation, approx. 3×EC50 Pam2CSK4, 18 h, SEAP OD 655 nm, background subtracted
Structures can show the parent of a compound that is named as a salt.
quantity_measured: IC50

Reference set (5 entries):
- compound: "COc1cc(/C=C/c2ccc(N3CCCC3)cc2)cc(O)c1C=O"
  observed_result: "> 100 µM"
- compound: "COc1cc(-c2cc3c(s2)CCNC3)cc(C=O)c1O [compound 13, hydrochloride]"
  observed_result: "4.5 µM"
- compound: "COc1cc(/C=C/c2ccc(N3CCOCC3)cc2)cc(C=O)c1O"
  observed_result: "2.3 µM"
- compound: "COCCOc1ccc(/C=C/c2cc(F)c(O)c(C=O)c2)cc1"
  observed_result: "3.6 µM"
- compound: "COc1cc(/C=C/c2ccc(C)nc2)cc(C=O)c1O"
  observed_result: "7.4 µM"

State recorded IC50 for all listed compounds.
1. COc1cc(/C=C/c2ccc3c(c2)CCCN3C(=O)OC(C)(C)C)cc(C=O)c1O
2. O=Cc1cc(/C=C/c2ccc(-n3cccn3)cc2)cc(F)c1O
3. O=Cc1c(O)cc(/C=C/c2ccc(N3CCCCC3)cc2)cc1F
4. Oc1c(F)cc(/C=C/c2ccc(N3CCCC3)cc2)cc1/C=N/N1CCOCC1
5. COc1cc(/C=C/C(=O)N2CCOCC2)cc(C=O)c1O
6. O=S(=O)(N/N=C/c1cc(/C=C/c2ccc(N3CCCC3)cc2)cc(F)c1O)c1ccccc1

Ans:
2.3 µM
1.7 µM
13.7 µM
2.9 µM
68.5 µM
16.4 µM

State recorded IC50 for all listed compounds.
1. COc1cc(/C=C/c2ccc(F)cc2)cc(C=O)c1O
2. CCO/N=C/c1cc(/C=C/c2ccc(N3CCCC3)cc2)cc(F)c1O
3. COc1cc(-c2cc3c(s2)CCN(C(C)=O)C3)cc(C=O)c1O
4. Cc1ccc(/C=C/c2ccc(O)c(C=O)c2)cn1
5. COc1cc(/C=C/c2cccc(N3CCCC3)c2)cc(C=O)c1O
6. O=Cc1cc(/C=C/c2ccccn2)ccc1O
7. O=Cc1cc(/C=C/c2ccc(N3CCCC3)cn2)cc(F)c1O
8. CC(C)(C)OC(=O)N1CCCc2cc(/C=C/c3cc(F)c(O)c(C=O)c3)ccc21

Ans:
1: 7.9 µM; 2: 29.5 µM; 3: 14.7 µM; 4: 40 µM; 5: 1.4 µM; 6: > 100 µM; 7: 3.9 µM; 8: 1 µM
